# TESTED_ON: NET (Homo sapiens)
# Sequence (P23975 whole entry): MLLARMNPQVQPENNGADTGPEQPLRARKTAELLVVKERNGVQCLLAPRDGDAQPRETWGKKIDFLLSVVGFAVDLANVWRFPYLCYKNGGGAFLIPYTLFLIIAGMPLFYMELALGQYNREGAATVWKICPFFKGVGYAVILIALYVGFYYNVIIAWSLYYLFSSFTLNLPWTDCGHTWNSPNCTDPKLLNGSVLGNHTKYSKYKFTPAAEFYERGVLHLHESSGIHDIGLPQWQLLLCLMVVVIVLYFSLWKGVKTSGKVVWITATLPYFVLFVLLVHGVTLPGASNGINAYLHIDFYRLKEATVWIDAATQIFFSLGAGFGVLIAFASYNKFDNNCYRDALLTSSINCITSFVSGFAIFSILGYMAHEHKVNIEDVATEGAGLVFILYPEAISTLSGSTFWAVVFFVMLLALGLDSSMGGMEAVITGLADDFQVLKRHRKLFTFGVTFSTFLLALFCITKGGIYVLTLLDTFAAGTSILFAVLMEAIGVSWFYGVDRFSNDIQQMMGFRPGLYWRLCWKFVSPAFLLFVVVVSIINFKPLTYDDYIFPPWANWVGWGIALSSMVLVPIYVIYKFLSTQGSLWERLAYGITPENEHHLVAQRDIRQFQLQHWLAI
# PROTOCOL_DETAILS: hNET membrane radioligand binding assay (3H-nisoxetine)
# Set-up: expressed in transfected cells; host or cells: HEK-293
# CONDITION_LABEL: hNET membranes (HEK-293), 1.0 nM 3H-nisoxetine; read-out: NET pKi (converted)
Examples of compounds with documented Ki follow.

Fc1cccc(O[C@H](C2CCOCC2)[C@@H]2CCNC2)c1 : ≤ 10 nM
COC[C@H](Oc1ccc(Cl)cc1Cl)[C@H]1CCNC1 : ≤ 10 nM
COC[C@H](Oc1cccc(F)c1Cl)[C@H]1CCNC1 : ≤ 10 nM
CC(C)OC[C@H](Oc1cccc(F)c1Cl)[C@@H]1CCNC1 : ≤ 100 nM
FC(F)(F)c1c(Cl)cccc1OC(C1CCOCC1)C1CCNC1 (stereo not drawn) : ≤ 100 nM
COC[C@H](Oc1cccc(C(F)(F)F)c1)[C@H]1CCNC1 : ≤ 100 nM

Look at this compound and give its reported Ki. COCC(Oc1ccc(Cl)cc1C)C1CCNC1 (stereo not drawn)
≤ 10 nM

Look at this compound and give its reported Ki. `Clc1cccc(O[C@H](C2CCOCC2)[C@H]2CCNC2)c1Cl`
≤ 10 nM

Look at this compound and give its reported Ki. `FC(F)(F)c1c(Cl)cccc1O[C@@H](C1CCOCC1)[C@@H]1CCNC1`
≤ 100 nM

Look at this compound and give its reported Ki. `Clc1cccc(Cl)c1O[C@@H](C1CCOCC1)[C@H]1CCNC1`
≤ 10 nM

Look at this compound and give its reported Ki. `Clc1ccc(O[C@@H](C2CCOCC2)[C@H]2CCNC2)c(Cl)c1`
≤ 10 nM

Look at this compound and give its reported Ki. `CCOC[C@@H](Oc1cccc(Cl)c1Cl)[C@H]1CCNC1`
≤ 10 nM

---

# TESTED_ON: NET (Homo sapiens)
# PROTOCOL_DETAILS: fluorescence-based norepinephrine uptake assay (Tsuruda et al. 2010)
# Format: cell-based
# CONDITION_LABEL: norepinephrine reuptake inhibition, fluorescence-based assay (data indicated by an asterisk)
Marks after values point to notes of the source that are not given here.
READOUT_NAME: NET pIC50

Examples with their reported NET pIC50 follow.
CSC[C@@H](Oc1cccc(C(F)(F)F)c1)[C@H]1CCNC1.O=C(O)C(F)(F)F [Example 15-10] : ≧7.0*
CCSC[C@@H](Oc1cccc(F)c1Cl)[C@H]1CCNC1.O=C(O)C(F)(F)F [Example 17-4] : ≧8.0*
CSC[C@@H](Oc1ccc(F)c(F)c1F)[C@H]1CCNC1.O=C(O)C(F)(F)F [Example 15-14] : ≧8.0*
CCSC[C@H](Oc1ccc(Cl)cc1)[C@H]1CCNC1.O=C(O)C(F)(F)F [Example 17-10] : ≧8.0*
CCSC[C@@H](Oc1cccc(C(F)(F)F)c1)[C@H]1CCNC1.O=C(O)C(F)(F)F [Example 17-12] : ≧7.0*
CSC[C@H](Oc1cccc(Cl)c1Cl)[C@H]1CCNC1.O=C(O)C(F)(F)F [Example 15-1] : ≧8.0*
CCSC[C@H](Oc1cccc(Cl)c1C)[C@H]1CCNC1.O=C(O)C(F)(F)F [Example 17-5] : ≧8.0*
Cc1cc(Cl)ccc1O[C@@H](COCc1ccccc1)[C@H]1CCNC1.O=C(O)C(F)(F)F [Prep 3] : ≧8.0*
CSC[C@H](Oc1cccc(Cl)c1C)[C@H]1CCNC1.O=C(O)C(F)(F)F [Example 15-5] : ≧8.0*
CCSC[C@H](Oc1ccc(Cl)cc1Cl)[C@H]1CCNC1.O=C(O)C(F)(F)F [Example 17-7] : ≧8.0*

Look at this molecule and give its reported NET pIC50. CCSC[C@@H](Oc1ccc(Cl)cc1Cl)[C@H]1CCNC1.O=C(O)C(F)(F)F [Example 17-8]
≧8.0*

Look at this molecule and give its reported NET pIC50. CSC[C@@H](Oc1cccc(Cl)c1Cl)[C@H]1CCNC1.O=C(O)C(F)(F)F [Example 15-2]
≧8.0*

Look at this molecule and give its reported NET pIC50. CSC[C@@H](Oc1cccc(Cl)c1C(F)(F)F)[C@H]1CCNC1.O=C(O)C(F)(F)F [Example 15-8]
≧7.0*

Look at this molecule and give its reported NET pIC50. CCSC[C@H](Oc1ccc(Cl)c(Cl)c1)[C@H]1CCNC1.O=C(O)C(F)(F)F [Example 17-9]
≧8.0*

Look at this molecule and give its reported NET pIC50. CSC[C@H](Oc1cccc(F)c1Cl)[C@H]1CCNC1.O=C(O)C(F)(F)F [Example 15-3]
≧8.0*

Look at this molecule and give its reported NET pIC50. CSC[C@@H](Oc1cccc(Cl)c1C)[C@H]1CCNC1.O=C(O)C(F)(F)F [Example 15-6]
≧8.0*

Look at this molecule and give its reported NET pIC50. CSC[C@H](Oc1cccc(C(F)(F)F)c1)[C@H]1CCNC1.O=C(O)C(F)(F)F [Example 15-9]
≧7.0*

Look at this molecule and give its reported NET pIC50. CCSC[C@H](Oc1cccc(Cl)c1Cl)[C@H]1CCNC1.O=C(O)C(F)(F)F [Example 17-1]
≧8.0*

Look at this molecule and give its reported NET pIC50. CSC[C@H](Oc1cccc(Cl)c1C(F)(F)F)[C@H]1CCNC1.O=C(O)C(F)(F)F [Example 15-7]
≧8.0*

Look at this molecule and give its reported NET pIC50. CCSC[C@@H](Oc1cccc(Cl)c1C)[C@H]1CCNC1.O=C(O)C(F)(F)F [Example 17-6]
≧8.0*

Look at this molecule and give its reported NET pIC50. CCSC[C@@H](Oc1cccc(Cl)c1Cl)[C@H]1CCNC1.O=C(O)C(F)(F)F [Example 17-2]
≧8.0*

Look at this molecule and give its reported NET pIC50. Clc1ccccc1O[C@@H](COCc1ccccc1)[C@H]1CCNC1 [Example 10-1]
≧8.0*

Look at this molecule and give its reported NET pIC50. CCSC[C@H](Oc1cccc(F)c1Cl)[C@H]1CCNC1.O=C(O)C(F)(F)F [Example 17-3]
≧8.0*

Look at this molecule and give its reported NET pIC50. CCSC[C@@H](Oc1cccc(Cl)c1C(F)(F)F)[C@H]1CCNC1.O=C(O)C(F)(F)F [Example 17-14]
≧7.0*

Look at this molecule and give its reported NET pIC50. CSC[C@H](Oc1ccc(Cl)cc1Cl)[C@H]1CCNC1.O=C(O)C(F)(F)F [Example 15-11]
≧8.0*

Look at this molecule and give its reported NET pIC50. CSC[C@@H](Oc1cccc(F)c1Cl)[C@H]1CCNC1.O=C(O)C(F)(F)F [Example 15-4]
≧8.0*

Look at this molecule and give its reported NET pIC50. CCSC[C@H](Oc1ccc(C(F)(F)F)cc1)[C@H]1CCNC1.O=C(O)C(F)(F)F [Example 17-11]
≧8.0*
